Target under test: T1, recombinant hPD-1 (construct not stated) (human, UniProt Q15116 25-167, limits assumed)
T1 construct: also called huPD-1; Human PD1
T1 sequence (Q15116 25-167 limits assumed): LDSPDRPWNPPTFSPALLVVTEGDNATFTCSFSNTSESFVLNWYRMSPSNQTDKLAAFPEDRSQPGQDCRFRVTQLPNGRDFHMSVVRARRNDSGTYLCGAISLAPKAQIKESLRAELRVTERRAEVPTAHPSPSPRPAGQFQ
Test protocol: SPR, Ab captured, PD-1 analyte
Measured kon of individual entries
Hi! Could you send only the number? It should be in M⁻¹ s⁻¹, unit omitted.

Examples with answers:
ZJN296-6 (antibody, V domains shown, human IgG1; also called GH + T071V + T073R, GL) VH: QVQLVQSGAEVKKPGASVKVSCKASGYDFTSHWMHWVRQAPGQGLEWMGAIDPSDSYTNYNQKFKGRVTMTVDRSTSTAYMELRSLRSDDTAVYYCARSPFDYWGQGTTVTVSS VL: DIQMTQSPSSLSASVGDRVTITCKASQDVSTAVAWYQQKPGKAPKLLIYSASYRYTGVPSRFSGSGSGTDFTFTISSLQPEDIATYYCQQHYSFPFTFGQGTKLEIK    62600
ZJN296-2 (antibody, V domains shown, human IgG1; also called GH + T071V, GL) VH: QVQLVQSGAEVKKPGASVKVSCKASGYDFTSHWMHWVRQAPGQGLEWMGAIDPSDSYTNYNQKFKGRVTMTVDTSTSTAYMELRSLRSDDTAVYYCARSPFDYWGQGTTVTVSS VL: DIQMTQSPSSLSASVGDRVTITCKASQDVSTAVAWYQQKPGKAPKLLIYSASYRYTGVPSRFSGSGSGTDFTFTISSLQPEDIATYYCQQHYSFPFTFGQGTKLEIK    56500
ZJN296-0 (antibody, human IgG1, V domains shown, human IgG1; also called humanized ZJN296-0; GH + GL) VH: QVQLVQSGAEVKKPGASVKVSCKASGYDFTSHWMHWVRQAPGQGLEWMGAIDPSDSYTNYNQKFKGRVTMTTDTSTSTAYMELRSLRSDDTAVYYCARSPFDYWGQGTTVTVSS VL: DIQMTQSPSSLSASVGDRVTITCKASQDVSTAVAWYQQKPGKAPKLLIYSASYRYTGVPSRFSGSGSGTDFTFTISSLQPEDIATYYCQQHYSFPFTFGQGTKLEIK    56900

Read the next record carefully.
Entry ZJN296-3 (antibody, V domains shown, human IgG1; also called GH + T073R, GL) VH: QVQLVQSGAEVKKPGASVKVSCKASGYDFTSHWMHWVRQAPGQGLEWMGAIDPSDSYTNYNQKFKGRVTMTTDRSTSTAYMELRSLRSDDTAVYYCARSPFDYWGQGTTVTVSS VL: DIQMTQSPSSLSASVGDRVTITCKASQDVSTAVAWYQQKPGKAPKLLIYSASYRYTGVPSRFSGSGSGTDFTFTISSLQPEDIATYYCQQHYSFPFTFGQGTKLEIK — recorded kon = 56100

src = patent US20260207767A1
